The measured values listed here are drawn from patent US6355799B1.

System: field corn (Zea mays L., var. Dekalb 535, CORN)
Assay: Post-emerge test, crop safety
Type: in vivo
Details: 250 g ai/ha; post-emerge; 14 days after application; rating scale 0-100
Quantity kind: Post-emerge Herbicidal Activity CORN (crop damage rating)

* CCOC(=O)C(Cl)Cc1c(OCC)c(Cl)cc(F)c1-n1c(=O)cc(C(F)(F)F)n(C)c1=O (centres unmarked) | 80
* COc1c(Cl)cc(F)c(-n2c(=O)cc(C(F)(F)F)n(C)c2=O)c1NN=C1CCc2ccccc2C1 | 80
* COc1c(Cl)cc(F)c(-n2c(=O)cc(C(F)(F)F)n(C)c2=O)c1NNC(=O)c1ccc2ccccc2c1 | 90
* COc1c(Cl)cc(F)c(-n2c(=O)cc(C(F)(F)F)n(C)c2=O)c1NN=CC1CC1 | 85
* COc1c(Cl)cc(F)c(-n2c(=O)cc(C(F)(F)F)n(C)c2=O)c1NN=C(C)C | 95
* COc1c(Cl)cc(F)c(-n2c(=O)cc(C(F)(F)F)n(C)c2=O)c1NN=CC(C)c1ccccc1 (centres unmarked) | 80
* COc1c(Cl)cc(F)c(-n2c(=O)cc(C(F)(F)F)n(C)c2=O)c1SCCO | 10
* CCCOC(=O)C(Cl)Cc1c(OCC)c(Cl)cc(F)c1-n1c(=O)cc(C(F)(F)F)n(C)c1=O (centres unmarked) [14-66] | 100

----------
System: ivyleaf morningglory (Ipomoea hederacea, IPOHE)
Test: Pre-emerge test, greenhouse herbicide activity screening
Type: in vivo
Conditions: 250 g ai/ha; pre-emerge; rated 14 days after application; 0 = no damage, 100 = complete death
Quantity kind: Pre-emerge Herbicidal Activity IPOHE (phytotoxicity rating, scale 0-100)

- CCOC(=O)C(C)Nc1cc(OC(F)F)cc(F)c1-n1c(=O)cc(C(F)(F)F)n(C)c1=O (centres unmarked): 95
- CCc1ccc(C(=O)Nc2c(OCC#N)c(Cl)cc(F)c2-n2c(=O)cc(C(F)(F)F)n(C)c2=O)cc1: 100
- C=C(C)C(=O)Nc1c(OC)c(Cl)cc(F)c1-n1c(=O)cc(C(F)(F)F)n(C)c1=O: 100
- COc1c(Cl)cc(F)c(-n2c(=O)cc(C(F)(F)F)n(N)c2=O)c1N: 100
- C#CCOc1c(Cl)cc(F)c(-n2c(=O)cc(C(F)(F)F)n(C)c2=O)c1N: 100

----------
Test system: upland rice (Oryza sp., var. Tebonnet, RICE)
Experiment: Post-emerge test, crop safety
Format: in vivo
Details: post-emerge, 250 g ai/ha, 14 days after application, rating scale 0-100
Quantity kind: RICE phytotoxicity rating (crop damage)

* COc1c(Cl)cc(F)c(-n2c(=O)cc(C(F)(F)F)n(C)c2=O)c1NC(=O)CSC(C)C | 10
* Cn1c(C(F)(F)F)cc(=O)n(-c2ccc(C(F)(F)F)cc2NC(=O)c2ccc3ccccc3c2)c1=O | 10
* COc1c(Br)cc(F)c(-n2c(=O)cc(C(F)(F)F)n(C)c2=O)c1NC(=O)C=Cc1ccccc1 [2-177] | 60
* COc1c(Cl)cc(F)c(-n2c(=O)cc(C(F)(F)F)n(C)c2=O)c1NC(=O)c1ccc2c(Br)cccc2c1 | 60
* COc1c(Cl)cc(F)c(-n2c(=O)cc(C(F)(F)F)n(C)c2=O)c1NC(=O)COc1ccc(F)cc1 | 95
* COc1c(Cl)cc(F)c(-n2c(=O)cc(C(F)(F)F)n(C)c2=O)c1NC(=O)C=Cc1ccccc1F | 70
* Cn1c(C(F)(F)F)cc(=O)n(-c2ccccc2NC(=O)c2ccc3ccccc3c2)c1=O | 0
* COc1ccc(-n2c(=O)cc(C(F)(F)F)n(C)c2=O)c(NC(=O)c2ccc3ccccc3c2)c1 | 70
* COc1c(Br)cc(F)c(-n2c(=O)cc(C(F)(F)F)n(C)c2=O)c1N(C(=O)C=Cc1ccccc1)C(=O)C=Cc1ccccc1 [2-176] | 30
* COc1c(Cl)cc(F)c(-n2c(=O)cc(C(F)(F)F)n(C)c2=O)c1NC(=O)CCc1ccccc1C | 75
* Cn1c(C(F)(F)F)cc(=O)n(-c2ccc(C#N)cc2NC(=O)C=Cc2ccccc2)c1=O | 65
* COc1c(C#N)cc(F)c(-n2c(=O)cc(C(F)(F)F)n(C)c2=O)c1NC(=O)c1ccc2ccccc2c1 [2-181] | 60
* COc1c(Cl)cc(F)c(-n2c(=O)cc(C(F)(F)F)n(C)c2=O)c1NC(=O)COc1ccc(Cl)cc1 | 40
* CCOC(=O)C(C)Oc1ccc(-n2c(=O)cc(C(F)(F)F)n(C)c2=O)c(NC(=O)c2ccc3ccccc3c2)c1 (stereo not shown) | 10
* COc1c(Cl)cc(F)c(-n2c(=O)cc(C(F)(F)F)n(C)c2=O)c1NC(=O)c1ccc2ccccc2c1OC | 10
* COc1c(Cl)cc(F)c(-n2c(=O)cc(C(F)(F)F)n(N)c2=O)c1NC(=O)COCc1ccccc1 | 90

----------
Tested on: upland rice (Oryza sp., var. Tebonnet, RICE)
Test: Post-emerge test, crop safety
Format: in vivo
Settings: post-emerge, 63 g ai/ha, 14 days after application, rating scale 0-100
Quantity kind: RICE phytotoxicity rating (crop damage)

* COc1c(Cl)cc(F)c(-n2c(=O)cc(C(F)(F)F)n(C)c2=O)c1NC(=O)COc1ccc(Cl)cc1Cl | 65
* COc1c(Br)cc(F)c(-n2c(=O)cc(C(F)(F)F)n(C)c2=O)c1NC(=O)C=Cc1ccccc1 [2-175] | 50
* COc1c(Cl)cc(F)c(-n2c(=O)cc(C(F)(F)F)n(C)c2=O)c1NC(=O)c1c(C)cccc1C | 0
* Cn1c(C(F)(F)F)cc(=O)n(-c2ccc(C#N)cc2NC(=O)C=Cc2ccccc2)c1=O | 15
* COc1c(Cl)cc(F)c(-n2c(=O)cc(C(F)(F)F)n(C)c2=O)c1NC(=O)c1ccc2c(Br)cccc2c1 | 20
* COc1c(C#N)cc(F)c(-n2c(=O)cc(C(F)(F)F)n(C)c2=O)c1NC(=O)c1ccc2ccccc2c1 [2-180] | 20
* COc1c(Cl)cc(F)c(-n2c(=O)cc(C(F)(F)F)n(C)c2=O)c1NC(=O)c1ccc2c(C#N)cccc2c1 | 20
* Cn1c(C(F)(F)F)cc(=O)n(-c2ccc(Cl)cc2NC(=O)C=Cc2ccccc2)c1=O | 10
* COc1c(Br)cc(F)c(-n2c(=O)cc(C(F)(F)F)n(C)c2=O)c1N(C(=O)C=Cc1ccccc1)C(=O)C=Cc1ccccc1 [2-176] | 10
* C=Cc1ccc(C(=O)Nc2c(OC)c(Br)cc(F)c2-n2c(=O)cc(C(F)(F)F)n(C)c2=O)cc1 | 0
* CCOC(=O)COc1c(Cl)cc(F)c(-n2c(=O)cc(C(F)(F)F)n(C)c2=O)c1NC(=O)C=Cc1ccccc1 | 0
* CCOC(=O)C(C)SCC(=O)Nc1c(OC)c(Cl)cc(F)c1-n1c(=O)cc(C(F)(F)F)n(C)c1=O (stereo not drawn) | 0
* COc1c(Cl)cc(F)c(-n2c(=O)cc(C(F)(F)F)n(C)c2=O)c1NC(=O)c1cc2ccccc2cc1C | 25
* COc1ccccc1C=CC(=O)Nc1c(OC)c(Cl)cc(F)c1-n1c(=O)cc(C(F)(F)F)n(C)c1=O | 30
* COc1c(Cl)cc(Cl)c(-n2c(=O)cc(C(F)(F)F)n(C)c2=O)c1NC(=O)c1ccc2ccccc2c1 | 15

----------
System: upland rice (Oryza sp., var. Tebonnet, RICE)
Assay: Pre-emerge test, crop safety
Format: in vivo
Conditions: 250 g ai/ha; pre-emerge; rated 14 days after application; 0 = no damage, 100 = complete death
Quantity kind: Pre-emerge crop damage RICE (phytotoxicity rating, scale 0-100)

* COc1c(Cl)cc(F)c(-n2c(=O)cc(C(F)(F)F)n(C)c2=O)c1N=CN(C)C | 10
* COc1c(Cl)cc(F)c(-n2c(=O)cc(C(F)(F)F)n(C)c2=O)c1NS(=O)(=O)c1ccc(C)cc1 | 0
* Cc1c(Cl)cc(F)c(-n2c(=O)cc(C(F)(F)F)n(C)c2=O)c1N | 90
* C=C(C)C(=O)Nc1c(OC)c(Cl)cc(F)c1-n1c(=O)cc(C(F)(F)F)n(C)c1=O | 80
* Cn1c(C(F)(F)F)cc(=O)n(-c2c(F)cc(Cl)c(OCC#N)c2N)c1=O | 70
* Cn1c(C(F)(F)F)cc(=O)n(-c2c(F)cc(Cl)c(OC3CCCC3)c2N)c1=O | 10
* COC(=O)C(=O)Nc1c(OC)c(Cl)cc(F)c1-n1c(=O)cc(C(F)(F)F)n(C)c1=O | 0
* CCOC(=O)CC(=O)Nc1c(OC(=O)CC(=O)OCC)c(Cl)cc(F)c1-n1c(=O)cc(C(F)(F)F)n(C)c1=O | 15
